Reported inhibition values are given for each entry in this list.
Target: D(2) dopamine receptor (Homo sapiens)
Assay: HTS Assay for Allosteric Antagonists of the Human D2 Dopamine Receptor: Primary Screen for Antagonists; also: 0% is about no effect
Settings: HEK293 TREx D2 cells, calcium flux, dopamine EC80; at 10 µM; active compounds read high
The campaign covered roughly 340,000 compounds. About 6,900 (2%) were called active. The full list was thinned out, with actives kept by preference.
Property Label: inhibition (%)

| Compound | Property Label | Observed Measurement |
| --- | --- | --- |
| COc1ccc(NC(=O)NC2CC3CCCC(C2)N3Cc2ccccc2)cc1 (stereo not drawn) | inhibition | 46 |
| CC(C)OC(=O)CN1C(=O)C(=O)c2ccccc21 | inhibition | 2.86 |
| COc1ccc(NC(=S)N2CCC(NC(=O)c3cccc(F)c3)CC2)cc1 | inhibition | -6.43 |
| N#CCCN(C(=O)COC(=O)C1CCN(c2ccc(C(F)(F)F)cn2)CC1)c1ccc(F)cc1 | inhibition | 5.59 |
| Cc1ccc(CN2CCN(Cc3cn(C)nc3-c3ccccc3)CC2CCO)o1 (stereo not drawn) | inhibition | 9.07 |
| Cc1ccc2nc(-c3ccncc3)cc(C(=O)Nc3ccncc3)c2c1 | inhibition | -15.6 |
| O=C(Nc1ccccc1N1CCOCC1)c1ccncc1 | inhibition | -22.1 |
| CC(C)(C)OC(=O)N1CCC(NC(=O)c2[nH]cnc2C(=O)N[C@@H](Cc2ccccc2)C(=O)OCc2ccccc2)CC1 | inhibition | 20.4 |
| O=C1C=C(c2cccc(Cl)c2O)C[C@@H](c2ccc(F)cc2)C1 | inhibition | 6 |
| Cc1ccccc1NC(=O)Cc1nc(COC(=O)c2cccnc2Cl)cs1 | inhibition | 6.55 |
| COc1ccc(NC(=O)N2CCC(Cc3ccccc3)CC2)cc1 | inhibition | 3.66 |
| CCn1nc(C)c(CN2CCN(Cc3ccc(OC)c(C)c3C)C(CCO)C2)c1C (stereo not drawn) | inhibition | -7.65 |
| CCOC(=O)CN1C(=O)C(=O)c2cc(C)ccc21 | inhibition | 37 |
| CCOC(=O)[C@H]1[C@H]2COc3ccc(C)cc3[C@@H]2N2C(=O)CN(Cc3ccc(F)cc3)C(=O)[C@@]12C | inhibition | -3.67 |
| Cc1nnc(SCC(N)=O)n1CC1CCCO1 (stereo not drawn) | inhibition | 32.8 |
| CC(OC(=O)c1ccccc1NCCO)C(=O)Nc1ccnn1C(C)C (stereo not drawn) | inhibition | -18.3 |
| Cc1cccc2c1N(CC(=O)OC(C)C)C(=O)C2=O | inhibition | 0.945 |
| COc1ccc(CN2C3CCCC2CC(NC(=O)c2cccc(F)c2)C3)cc1 (stereo not drawn) | inhibition | 80.1 |
| Nc1nnc(SCn2nnc3ccccc3c2=O)s1 | inhibition | -2.28 |
| COc1ccc(NC(=O)c2cn(-c3ccccc3)nc2SC)cc1 | inhibition | 60.7 |
| Cc1c(NC(=S)Nc2ccccc2)c(=O)n(-c2ccccc2)n1C | inhibition | -10.1 |
| O=C(N[C@@H](Cc1ccccc1)C(=O)OCc1ccccc1)c1nc[nH]c1C(=O)NC1CCNCC1 | inhibition | 76.1 |
| CCN(C(=O)COC(=O)c1c(C)nn(-c2ccccc2)c1Cl)c1c(N)n(Cc2ccccc2)c(=O)[nH]c1=O | inhibition | -3.1 |
| CN(CC(=O)Nc1ccc(S(=O)(=O)N2CCCC2)cc1)Cc1ccc(Cl)c(Cl)c1 | inhibition | -19.3 |
| Cc1c(NC(=S)NC(=O)CCc2ccccc2)c(=O)n(-c2ccccc2)n1C | inhibition | 40.2 |
| OCCC#Cc1ccc(CN2CCN(Cc3ccsc3)C(CCO)C2)cc1 (stereo not drawn) | inhibition | 6.27 |
| OCCC1CN(Cc2cccc(O)c2)CCN1CCc1ccccc1 (stereo not drawn) | inhibition | 54.8 |
| CC1CC(C)CN(C/C=C/c2ccccc2[N+](=O)[O-])C1 (stereo not drawn) | inhibition | 7.28 |
| COc1ccc(OC)c(Nc2nc(-c3ccc(O)c(O)c3)cs2)c1 | inhibition | -3.66 |
| CCc1nnc(NC(=O)c2cc(S(=O)(=O)N3CCCCC3)ccc2C)s1 | inhibition | -4.7 |
| O=C(/C=C/c1ccccc1[N+](=O)[O-])OCC(=O)N1CCCC1 | inhibition | 4.52 |
| Cc1nnc(SCC(=O)NNC(=O)c2ccc(Cl)cc2)n1CC1CCCO1 (stereo not drawn) | inhibition | -10.1 |
| Cc1onc(C(=O)NN)c1-c1csc(COc2ccccc2)n1 | inhibition | 20.6 |
| COc1cccc(C(=O)NNC(=O)c2cccc(F)c2)c1 | inhibition | 0.993 |
| COc1ccccc1NC(=O)CSc1nnc(C)n1CC1CCCO1 (stereo not drawn) | inhibition | -14.5 |
| CC(NC(=O)CN(C)S(=O)(=O)c1ccc(F)cc1)C1CC2CCC1C2 (stereo not drawn) | inhibition | 2.6 |
| CC(=O)Nc1ccc(NC(=O)CCN2C(=O)C3CC=CCC3C2=O)cc1 (stereo not drawn) | inhibition | 16.4 |
| CC(C)(C)C(=O)OCc1nc(-c2ccc(O)c(O)c2)cs1 | inhibition | 93.7 |
| CC(=O)NC1CC2CCCC(C1)N2CC(=O)Nc1ccccc1 (stereo not drawn) | inhibition | 14.7 |
| O=C(N[C@@H](Cc1ccccc1)C(=O)OCc1ccccc1)c1nc[nH]c1C(=O)N[C@@H](Cc1ccccc1)C(=O)OCc1ccccc1 | inhibition | 13.9 |
| Cc1ccc2c(CN3CCN(S(=O)(=O)c4ccccc4C(F)(F)F)CC3)cc(=O)oc2c1 | inhibition | -23.9 |
| O=[N+]([O-])c1ccccc1/C=C/CN1CCCC(CO)C1 (stereo not drawn) | inhibition | 35.4 |
| COc1ccc(-c2nn(-c3ccccc3)cc2/C=C\C(=O)Nc2ccc(C(=O)O)cc2)cc1 | inhibition | 0.137 |
